Sourced from paper PMC5789597

- Experiment Description: in vitro
- Measurement Parameters: human, Caco-2
Test Readout: selectivity ratio at 72 h

**Q:** Quick one: selectivity ratio at 72 h for C=C(C)[C@@H]1CC[C@@]2(C)C1C1CCC3[C@@]4(C)CC[C@H](O)C(C)(C)C4CC[C@@]3(C)[C@]1(C)C[C@@H]2O (stereo partly drawn) [Compound 3, 16β-hydroxylupeol] ?
**A:** 2.53

====

The compounds listed here are annotated with their selectivity ratio at 72 h.
- Experiment Description: Neutral red (NR) uptake cytotoxicity assay, Caco-2
- Measurement Parameters: human, Caco-2

For orientation, consider the following solved cases.
# Compound, selectivity ratio at 72 h
records = [
    ("CCC(/C=C/[C@@H](C)C1CCC2C3=CCC4C[C@@H](O)CCC4(C)C3CCC21C)C(C)C (stereo partly shown)", "> 1.39"),
    ("C=C(CO)C1Cc2cc3c(cc2O1)OCC1c2ccc(OC)cc2OC31 (stereo not shown)", "> 1.69"),
    ("C=C(CO)C1Cc2cc3c(cc2O1)OCC1c2ccc(O)cc2OC31 (stereo not shown)", "> 1.4"),
    ("CC1(C)C=Cc2c(O)ccc(C3COc4cc(O)cc(O)c4C3=O)c2O1 (stereo not shown)", "> 6.42"),
    ("C=CC(C)(C)c1cc2c(cc1O)OCC1c3ccc(OC)cc3OC21 (stereo not shown)", "> 11.3"),
    ("COc1cc2c(c(O)c1CC=C(C)C)C(=O)[C@H](O)[C@@H](c1ccc(O)cc1)O2", 8.6),
]

**Q:** Quick one: selectivity ratio at 72 h for "CC1(C)C=Cc2c(cc(O)c3c(=O)c4cc5c(c(O)c4oc23)OC(C)(C)C=C5)O1" ?
**A:** 35.5
